Measured MIC Range, listed per entry for reference.
system: Haemophilus influenzae; assay: In vitro antibacterial activity (MIC), Gram-negative; settings: 11 strains tested

Worked set:
>  <Molecule>
CC[C@H]1OC(=O)[C@H](C)[C@@H](O[C@H]2C[C@@](C)(OC)[C@@H](O)[C@H](C)O2)[C@H](C)[C@@H](O[C@@H]2O[C@H](C)C[C@H](N(C)C)[C@H]2O)[C@](C)(OC)C[C@@H](C)C(=O)[C@H](C)[C@@H](O)[C@]1(C)O

>  <MIC Range>
2 to 8 µg/mL

$$$$
>  <Molecule>
CC[C@H]1OC(=O)[C@H](C)[C@@H](OC2CC(C)(OC)C(O)C(C)O2)[C@H](C)[C@@H](OC2OC(C)CC(N(C)C)C2O)[C@](C)(O)C[C@@H](C)/C(=N\OCCNCCCCCCNCc2nccs2)[C@H](C)[C@@H](O)[C@]1(C)O (stereo partly shown)

>  <MIC Range>
1 to 8 µg/mL

$$$$
>  <Molecule>
CC[C@H]1OC(=O)[C@H](C)[C@@H](O[C@H]2C[C@@](C)(OC)[C@@H](O)[C@H](C)O2)[C@H](C)[C@@H](O[C@@H]2O[C@H](C)C[C@H](N(C)C)[C@H]2O)[C@](C)(O)C[C@@H](C)CN(C)[C@H](C)[C@@H](O)[C@]1(C)O

>  <MIC Range>
0.25 to 1 µg/mL

$$$$

Please provide the recorded MIC Range for CC[C@H]1OC(=O)[C@H](C)[C@@H](O[C@H]2C[C@@](C)(OC)[C@@H](O)[C@H](C)O2)[C@H](C)[C@@H](O[C@@H]2O[C@H](C)C[C@H](N(C)C)[C@H]2O)[C@](C)(O)C[C@@H](C)/C(=N\OCOCCOC)[C@H](C)[C@@H](O)[C@]1(C)O , tested on Haemophilus influenzae.
4 to 16 µg/mL

* * *

system: Staphylococcus aureus; experiment: In vitro antibacterial activity (MIC), erythromycin-sensitive strains; details: Staphylococcus aureus
Overview of recorded MIC50 for various molecules
Field format: number, assumed µg/mL, no unit text.

What measured MIC50 goes with CC[C@H]1OC(=O)[C@H](C)[C@@H](O[C@H]2C[C@@](C)(OC)[C@@H](O)[C@H](C)O2)[C@H](C)[C@@H](O[C@@H]2O[C@H](C)C[C@H](N(C)C)[C@H]2O)[C@](C)(O)C[C@@H](C)/C(=N\OCOCCOC)[C@H](C)[C@@H](O)[C@]1(C)O ?
0.5

Would you kindly share the measured MIC50 for CC[C@H]1OC(=O)[C@H](C)[C@@H](O[C@H]2C[C@@](C)(OC)[C@@H](O)[C@H](C)O2)[C@H](C)[C@@H](O[C@@H]2O[C@H](C)C[C@H](N(C)C)[C@H]2O)[C@](C)(O)C[C@@H](C)CN(C)[C@H](C)[C@@H](O)[C@]1(C)O ?
0.5

Need MIC50, item CC[C@H]1OC(=O)[C@H](C)[C@@H](OC2CC(C)(OC)C(O)C(C)O2)[C@H](C)[C@@H](OC2OC(C)CC(N(C)C)C2O)[C@](C)(O)C[C@@H](C)/C(=N\OCCNCCCCCCNCc2nccs2)[C@H](C)[C@@H](O)[C@]1(C)O (stereo partly shown)
0.5

For the molecule shown here, CC[C@H]1OC(=O)[C@H](C)[C@@H](O[C@H]2C[C@@](C)(OC)[C@@H](O)[C@H](C)O2)[C@H](C)[C@@H](O[C@@H]2O[C@H](C)C[C@H](N(C)C)[C@H]2O)[C@](C)(OC)C[C@@H](C)C(=O)[C@H](C)[C@@H](O)[C@]1(C)O , give the reported MIC50.
0.25

* * *

Measured MIC50 of individual entries
test system: Streptococcus pneumoniae; assay: In vitro antibacterial activity (MIC), erythromycin-sensitive strains; conditions: Streptococcus pneumoniae
Entry rule: numbers only, all in µg/mL.

Worked examples follow.
>  <Compound>
CC[C@H]1OC(=O)[C@H](C)[C@@H](OC2CC(C)(OC)C(O)C(C)O2)[C@H](C)[C@@H](OC2OC(C)CC(N(C)C)C2O)[C@](C)(O)C[C@@H](C)/C(=N\OCCNCCCCCCNCc2nccs2)[C@H](C)[C@@H](O)[C@]1(C)O (stereo partly shown)

>  <Metric>
MIC50

>  <Reported>
0.0039

$$$$
>  <Compound>
CC[C@H]1OC(=O)[C@H](C)[C@@H](O[C@H]2C[C@@](C)(OC)[C@@H](O)[C@H](C)O2)[C@H](C)[C@@H](O[C@@H]2O[C@H](C)C[C@H](N(C)C)[C@H]2O)[C@](C)(O)C[C@@H](C)/C(=N\OCOCCOC)[C@H](C)[C@@H](O)[C@]1(C)O

>  <Metric>
MIC50

>  <Reported>
0.0625

$$$$
>  <Compound>
CC[C@H]1OC(=O)[C@H](C)[C@@H](O[C@H]2C[C@@](C)(OC)[C@@H](O)[C@H](C)O2)[C@H](C)[C@@H](O[C@@H]2O[C@H](C)C[C@H](N(C)C)[C@H]2O)[C@](C)(O)C[C@@H](C)CN(C)[C@H](C)[C@@H](O)[C@]1(C)O

>  <Metric>
MIC50

>  <Reported>
0.0312

$$$$

--- query ---
Given the entry CC[C@H]1OC(=O)[C@H](C)[C@@H](O[C@H]2C[C@@](C)(OC)[C@@H](O)[C@H](C)O2)[C@H](C)[C@@H](O[C@@H]2O[C@H](C)C[C@H](N(C)C)[C@H]2O)[C@](C)(OC)C[C@@H](C)C(=O)[C@H](C)[C@@H](O)[C@]1(C)O , report its measured MIC50.
0.0156

* * *

The molecules listed here are annotated with their MIC90.
tested on: Branhamella catarrhalis
Note: unit µg/mL is implicit; provide only the numeric part.

>  <Molecule>
CC[C@H]1OC(=O)[C@H](C)[C@@H](O[C@H]2C[C@@](C)(OC)[C@@H](O)[C@H](C)O2)[C@H](C)[C@@H](O[C@@H]2O[C@H](C)C[C@H](N(C)C)[C@H]2O)[C@](C)(O)C[C@@H](C)CN(C)[C@H](C)[C@@H](O)[C@]1(C)O

>  <Reported>
0.0156

$$$$
>  <Molecule>
CC[C@H]1OC(=O)[C@H](C)[C@@H](OC2CC(C)(OC)C(O)C(C)O2)[C@H](C)[C@@H](OC2OC(C)CC(N(C)C)C2O)[C@](C)(O)C[C@@H](C)/C(=N\OCCNCCCCCCNCc2nccs2)[C@H](C)[C@@H](O)[C@]1(C)O (stereo partly shown)

>  <Reported>
0.125

$$$$
>  <Molecule>
CC[C@H]1OC(=O)[C@H](C)[C@@H](O[C@H]2C[C@@](C)(OC)[C@@H](O)[C@H](C)O2)[C@H](C)[C@@H](O[C@@H]2O[C@H](C)C[C@H](N(C)C)[C@H]2O)[C@](C)(O)C[C@@H](C)/C(=N\OCOCCOC)[C@H](C)[C@@H](O)[C@]1(C)O

>  <Reported>
0.0625

$$$$

Moving on to another molecule below.
Item CC[C@H]1OC(=O)[C@H](C)[C@@H](O[C@H]2C[C@@](C)(OC)[C@@H](O)[C@H](C)O2)[C@H](C)[C@@H](O[C@@H]2O[C@H](C)C[C@H](N(C)C)[C@H]2O)[C@](C)(OC)C[C@@H](C)C(=O)[C@H](C)[C@@H](O)[C@]1(C)O with Branhamella catarrhalis - MIC90?
0.0156

* * *

test system: Branhamella catarrhalis; experiment: In vitro antibacterial activity (MIC), Gram-negative; conditions: 5 strains tested
Metric: MIC Range

>  <Compound>
CC[C@H]1OC(=O)[C@H](C)[C@@H](O[C@H]2C[C@@](C)(OC)[C@@H](O)[C@H](C)O2)[C@H](C)[C@@H](O[C@@H]2O[C@H](C)C[C@H](N(C)C)[C@H]2O)[C@](C)(OC)C[C@@H](C)C(=O)[C@H](C)[C@@H](O)[C@]1(C)O

>  <Reported>
7.8 to 15.6 ng/mL

$$$$
>  <Compound>
CC[C@H]1OC(=O)[C@H](C)[C@@H](OC2CC(C)(OC)C(O)C(C)O2)[C@H](C)[C@@H](OC2OC(C)CC(N(C)C)C2O)[C@](C)(O)C[C@@H](C)/C(=N\OCCNCCCCCCNCc2nccs2)[C@H](C)[C@@H](O)[C@]1(C)O (stereo partly shown)

>  <Reported>
1.9 to 125 ng/mL

$$$$
>  <Compound>
CC[C@H]1OC(=O)[C@H](C)[C@@H](O[C@H]2C[C@@](C)(OC)[C@@H](O)[C@H](C)O2)[C@H](C)[C@@H](O[C@@H]2O[C@H](C)C[C@H](N(C)C)[C@H]2O)[C@](C)(O)C[C@@H](C)/C(=N\OCOCCOC)[C@H](C)[C@@H](O)[C@]1(C)O

>  <Reported>
31.2 to 62.5 ng/mL

$$$$

# evaluate next
Give MIC Range (Branhamella catarrhalis) of the following compound: CC[C@H]1OC(=O)[C@H](C)[C@@H](O[C@H]2C[C@@](C)(OC)[C@@H](O)[C@H](C)O2)[C@H](C)[C@@H](O[C@@H]2O[C@H](C)C[C@H](N(C)C)[C@H]2O)[C@](C)(O)C[C@@H](C)CN(C)[C@H](C)[C@@H](O)[C@]1(C)O
7.8 to 15.6 ng/mL

Attribution: patent US6583120B1
